Experiment: Pharmacokinetic parameters in plasma after intra-articular administration to rats
Type: in vivo, Sprague Dawley rats
Conditions: male, Sprague Dawley, rat, plasma, 0.1 mg, plasma, male rat, 0.1 mg/knee intra-articular, mean; read-out: AUC0-672
readout-type: AUC(0-t) (ng·h/mL)
Numbers only, in ng·h/mL.

Enquiry: Check the records and state AUC(0-t) for COc1ccc(COc2ccc(Cn3c(N)nc4cc(-c5cnn(C)c5)cnc43)cc2OC)cc1 [Form 1 Compound, monohydrate, reference compound]
Return: 1350

* * *

Assay: Pharmacokinetic parameters in plasma after intra-articular administration to rats
Format: in vivo, Sprague Dawley rats
Conditions: Sprague Dawley; plasma, male rat, 1 mg/knee intra-articular; range printed in row below
readout-type: Tmax (h)
One number for each entry, in h.

Enquiry: Check the records and state Tmax for COc1ccc(COc2ccc(Cn3c(N)nc4cc(-c5cnn(C)c5)cnc43)cc2OC)cc1 [Form 3 Compound, monohydrate]
Return: 4

Value source: patent US12291528B2
